# targetUnderTest: EGFR (Homo sapiens, UniProt P00533)
# Sequence (P00533 25-1210): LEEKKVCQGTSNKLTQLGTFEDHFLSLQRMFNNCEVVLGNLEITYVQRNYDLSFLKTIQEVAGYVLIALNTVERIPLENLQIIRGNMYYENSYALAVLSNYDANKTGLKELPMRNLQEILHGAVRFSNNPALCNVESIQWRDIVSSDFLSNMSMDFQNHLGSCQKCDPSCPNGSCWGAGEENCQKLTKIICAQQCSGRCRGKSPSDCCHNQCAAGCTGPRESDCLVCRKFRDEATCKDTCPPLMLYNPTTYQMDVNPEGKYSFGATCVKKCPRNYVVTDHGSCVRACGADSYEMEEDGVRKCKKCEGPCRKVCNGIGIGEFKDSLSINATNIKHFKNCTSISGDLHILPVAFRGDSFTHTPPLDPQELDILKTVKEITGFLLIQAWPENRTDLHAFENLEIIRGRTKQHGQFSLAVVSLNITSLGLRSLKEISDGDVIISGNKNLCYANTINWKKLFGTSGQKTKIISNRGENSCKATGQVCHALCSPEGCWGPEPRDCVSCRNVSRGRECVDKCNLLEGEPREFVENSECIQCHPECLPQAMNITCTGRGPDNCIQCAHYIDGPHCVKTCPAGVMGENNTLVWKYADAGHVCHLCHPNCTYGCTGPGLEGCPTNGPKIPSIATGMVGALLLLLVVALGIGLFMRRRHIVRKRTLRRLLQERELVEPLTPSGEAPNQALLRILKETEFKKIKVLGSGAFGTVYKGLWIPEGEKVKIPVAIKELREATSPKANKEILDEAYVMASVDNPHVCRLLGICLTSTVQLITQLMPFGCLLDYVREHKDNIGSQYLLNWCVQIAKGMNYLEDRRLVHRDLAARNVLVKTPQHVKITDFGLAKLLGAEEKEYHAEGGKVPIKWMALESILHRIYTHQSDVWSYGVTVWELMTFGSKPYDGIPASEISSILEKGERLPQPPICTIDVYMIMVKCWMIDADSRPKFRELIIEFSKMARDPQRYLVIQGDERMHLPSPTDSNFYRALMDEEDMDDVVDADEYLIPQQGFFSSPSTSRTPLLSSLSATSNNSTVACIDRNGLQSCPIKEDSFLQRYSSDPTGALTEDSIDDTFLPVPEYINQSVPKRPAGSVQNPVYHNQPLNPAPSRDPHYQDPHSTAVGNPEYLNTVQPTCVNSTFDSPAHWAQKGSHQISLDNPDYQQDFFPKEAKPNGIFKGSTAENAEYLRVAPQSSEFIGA
# assayProtocol: EGF receptor ELISA in cells engineered to express human EGF-R
# setupConditions: 50% inhibition of PTK activity over control
measurementType: IC50

>  <smiles>
COC(=O)CCc1c[nH]c(C=C2C(=O)Nc3ccccc32)c1C

>  <targetUnderTest>
EGFR (Homo sapiens, UniProt P00533)

>  <IC50>
> 100 µM

$$$$
>  <smiles>
CCOC(=O)c1c(C)[nH]c(C=C2C(=O)Nc3ccc(NC(=O)c4ccc(C(=O)OC)cc4)cc32)c1C

>  <targetUnderTest>
EGFR (Homo sapiens, UniProt P00533)

>  <IC50>
> 10 µM

$$$$
>  <smiles>
CC(=O)c1[nH]c(C=C2C(=O)Nc3ccccc32)c(C)c1C

>  <targetUnderTest>
EGFR (Homo sapiens, UniProt P00533)

>  <IC50>
> 100 µM

$$$$
>  <smiles>
COC(=O)CCc1c[nH]c(C=C2C(=O)Nc3cc(OC)c(OC)cc32)c1C

>  <targetUnderTest>
EGFR (Homo sapiens, UniProt P00533)

>  <IC50>
> 50 µM

$$$$
>  <smiles>
CCOC(=O)c1c(C)[nH]c(C=C2C(=O)Nc3ccc(Br)cc32)c1C

>  <targetUnderTest>
EGFR (Homo sapiens, UniProt P00533)

>  <IC50>
> 25 µM

$$$$

**Q:** Enter reported IC50 observed with EGFR (Homo sapiens, UniProt P00533) for CCc1c(C=C2C(=O)Nc3ccccc32)[nH]c(C(=O)O)c1C
**A:** > 100 µM

**Q:** Record lookup: for EGFR (Homo sapiens, UniProt P00533), what IC50 belongs to CCOC(=O)CCc1c(C(=O)OCC)[nH]c(C=C2C(=O)Nc3ccccc32)c1CC(=O)OCC ?
**A:** > 10 µM

**Q:** Any idea what IC50 came out for CCOC(=O)c1c(C)[nH]c(C=C2C(=O)Nc3ccccc32)c1C on EGFR (Homo sapiens, UniProt P00533)?
**A:** > 100 µM

**Q:** What is its IC50 for EGFR (Homo sapiens, UniProt P00533)? Entry: COC(=O)Cc1c(Cl)[nH]c(C=C2C(=O)Nc3ccccc32)c1C(=O)OC
**A:** > 50 µM

**Q:** Observed IC50 on EGFR (Homo sapiens, UniProt P00533) for CCOC(=O)c1[nH]c(C=C2C(=O)Nc3ccccc32)c(C(C)=O)c1C , please.
**A:** > 10 µM

**Q:** What value of IC50 on EGFR (Homo sapiens, UniProt P00533) does CCOC(=O)c1c[nH]c(C=C2C(=O)Nc3ccccc32)c1C have?
**A:** > 100 µM

**Q:** Lab note: need IC50 for Cc1c[nH]c(C=C2C(=O)Nc3ccccc32)c1CCC(=O)O on EGFR (Homo sapiens, UniProt P00533), anyone have it?
**A:** > 100 µM

====

# targetUnderTest: IGF-1R (Homo sapiens)
# Sequence (P08069 31-1367, species assumed): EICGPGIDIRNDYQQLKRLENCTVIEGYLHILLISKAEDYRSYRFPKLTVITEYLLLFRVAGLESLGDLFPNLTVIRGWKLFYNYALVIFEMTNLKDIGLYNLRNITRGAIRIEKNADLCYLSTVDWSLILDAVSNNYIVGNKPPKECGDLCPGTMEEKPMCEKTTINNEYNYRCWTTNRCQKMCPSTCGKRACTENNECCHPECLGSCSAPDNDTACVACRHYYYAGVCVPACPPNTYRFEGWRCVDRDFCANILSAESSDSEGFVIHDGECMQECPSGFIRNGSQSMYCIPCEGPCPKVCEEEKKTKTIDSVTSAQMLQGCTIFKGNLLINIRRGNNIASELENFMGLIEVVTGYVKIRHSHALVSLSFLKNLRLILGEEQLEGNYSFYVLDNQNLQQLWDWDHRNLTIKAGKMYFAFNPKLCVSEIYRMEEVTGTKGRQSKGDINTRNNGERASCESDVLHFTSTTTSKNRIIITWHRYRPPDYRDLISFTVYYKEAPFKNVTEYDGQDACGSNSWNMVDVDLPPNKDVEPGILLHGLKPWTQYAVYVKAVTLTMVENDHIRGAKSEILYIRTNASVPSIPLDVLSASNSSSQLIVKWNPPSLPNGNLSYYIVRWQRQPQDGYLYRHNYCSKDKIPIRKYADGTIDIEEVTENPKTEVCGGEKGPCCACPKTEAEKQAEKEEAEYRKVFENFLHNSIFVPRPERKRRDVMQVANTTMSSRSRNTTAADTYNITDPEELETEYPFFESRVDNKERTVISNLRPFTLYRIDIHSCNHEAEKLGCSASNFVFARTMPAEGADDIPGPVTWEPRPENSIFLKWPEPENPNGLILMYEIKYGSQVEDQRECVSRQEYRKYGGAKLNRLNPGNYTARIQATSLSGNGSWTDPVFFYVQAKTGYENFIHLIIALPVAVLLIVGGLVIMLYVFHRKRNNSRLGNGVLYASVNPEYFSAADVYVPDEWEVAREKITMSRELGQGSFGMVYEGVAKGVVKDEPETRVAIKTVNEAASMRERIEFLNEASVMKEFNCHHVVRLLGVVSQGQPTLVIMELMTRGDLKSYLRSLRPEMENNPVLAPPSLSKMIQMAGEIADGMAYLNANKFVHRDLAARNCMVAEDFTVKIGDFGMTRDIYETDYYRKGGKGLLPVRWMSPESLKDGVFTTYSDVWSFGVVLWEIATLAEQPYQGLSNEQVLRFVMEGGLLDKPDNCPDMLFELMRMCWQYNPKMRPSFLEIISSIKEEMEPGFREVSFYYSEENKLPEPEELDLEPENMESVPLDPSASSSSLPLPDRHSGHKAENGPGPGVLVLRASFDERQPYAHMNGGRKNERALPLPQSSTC
# assayProtocol: IGF-I receptor ELISA in 3T3/IGF-1R cells
# setupConditions: 50% inhibition of PTK activity over control
# Description: The cellular/catalytic assays described herein are performed in an ELISA format. […] Non-substrate components of the cell lysate are washed away and the amount of phosphorylation on the substrate is detected with an antibody specifically recognizing phosphotyrosine compared with control cells that were not contacted with a test compound. […]
As shown below, each of these molecules has a reported IC50 value.

Example molecules with recorded IC50:
>  <smiles>
CCOC(=O)c1c(C)[nH]c(C=C2C(=O)Nc3ccc(NC(=O)c4ccc(C(=O)OC)cc4)cc32)c1C

>  <IC50>
> 10 µM

$$$$
>  <smiles>
CCc1c(C=C2C(=O)Nc3ccccc32)[nH]c(C(=O)O)c1C

>  <IC50>
> 100 µM

$$$$
>  <smiles>
CCOC(=O)c1[nH]c(C=C2C(=O)Nc3ccccc32)c(C(C)=O)c1C

>  <IC50>
> 10 µM

$$$$
>  <smiles>
CCOC(=O)CCc1c(C(=O)OCC)[nH]c(C=C2C(=O)Nc3ccccc32)c1CC(=O)OCC

>  <IC50>
> 10 µM

$$$$

**Q:** Query: IC50; subject: CCOC(=O)c1c[nH]c(C=C2C(=O)Nc3ccccc32)c1C
**A:** > 100 µM

**Q:** Requested field: IC50. Item: COC(=O)CCc1c[nH]c(C=C2C(=O)Nc3cc(OC)c(OC)cc32)c1C
**A:** > 50 µM
